test system: FAK; experiment: Coupled Spectrophotometric (FAK) Assay; format: biochemical
Label met when FAK % Inhibition at 1 μM is at or above 60%; anything below gets not met.

{"compound": "C(=C\\c1n[nH]c2ccc(-c3ccccc3)cc12)/c1ccccc1 [Example 1, 5-Phenyl-3-Styryl-1H-Indazole]", "target.or.test.system": "FAK", "label": "not met"}
{"compound": "OC1CCN(c2ccc3[nH]nc(/C=C/c4ccccc4)c3c2)CC1 [Example 27]", "target.or.test.system": "FAK", "label": "not met"}
{"compound": "Clc1ccncc1-c1ccc2[nH]nc(/C=C/c3ccccc3)c2c1 [Example 42]", "target.or.test.system": "FAK", "label": "met"}
{"compound": "Nc1cccc2c(-c3ccc4[nH]nc(/C=C/c5ccccc5)c4c3)cncc12 [Example 45]", "target.or.test.system": "FAK", "label": "met"}

input: Threshold query (FAK % Inhibition at 1 μM >= 60%) on C(=C\c1n[nH]c2ccc(-c3cncc4ccccc34)cc12)/c1ccccc1 [Example 16]
output: not met
